- targetUnderTest: TrkA (or NTRK1) (Homo sapiens)
- Construct: using the soluble intracellular segment of theses receptors, containing the kinase activity; purchased Millipore
- Sequence (P04629 440-796 limits assumed): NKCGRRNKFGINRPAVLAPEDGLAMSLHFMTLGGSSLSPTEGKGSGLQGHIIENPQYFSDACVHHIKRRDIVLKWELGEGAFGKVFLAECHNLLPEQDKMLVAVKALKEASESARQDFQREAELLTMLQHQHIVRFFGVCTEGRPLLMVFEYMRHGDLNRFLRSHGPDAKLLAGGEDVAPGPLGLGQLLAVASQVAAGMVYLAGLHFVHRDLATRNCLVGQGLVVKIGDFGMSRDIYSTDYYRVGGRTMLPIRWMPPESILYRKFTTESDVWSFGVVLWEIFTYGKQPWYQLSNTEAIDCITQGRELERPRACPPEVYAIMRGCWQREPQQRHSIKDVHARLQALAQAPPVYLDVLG
- assayComment: In vitro kinase glo plus-based kinase assay, TrkA
- Type: biochemical
- conditionSummary: comparative experiments; 30 μM ATP
# IC50 values compiled below

molecule | IC50
CN1CCN(c2ccc(C(=O)Nc3n[nH]c4nc(Nc5cc(F)cc(F)c5)ncc34)c(NC3CCOCC3)c2)CC1 [A] | ~10 µM
CN1CCN(c2ccc(C(=O)Nc3n[nH]c4ncc(Sc5cc(F)cc(F)c5)cc34)c(NC3CCOCC3)c2)CC1 [Compound 30] | 0.045 µM
CN1CCN(c2ccc(C(=O)Nc3n[nH]c4nc(Nc5ccc(F)cc5F)ncc34)c(NC3CCOCC3)c2)CC1 [B] | 3.3 µM
CN1CCN(c2ccc(C(=O)Nc3n[nH]c4nc(Nc5ccc(F)cc5F)ccc34)c(NC3CCOCC3)c2)CC1 [C] | 2.1 µM
Nc1n[nH]c2ncc(Sc3cc(F)cc(F)c3)cc12 [D] | 22 µM
